# protocol: protein stability index of a GFP-peptide fusion (yeast GPS) (PSI 1-4); higher = more stable; sorted into four equal gates, so the index is relative within each strain
# reported.conditions: doa10∆
Record form. Attribute: protein stability index. Fill in for each entry.
Numbers only.

1) ADVLVDRVVSSDSLDIA [SRP72]	1.95

Quick batch: protein stability index for everything below.
1. PWVVYLQILAMLLLNIF [YMR129W/POM152]
2. LGQERATDLAGPANNPN [PRP8]
3. QQQQQNQQQQNQQPQQQ [SWI1]
4. IDADSLEDIYTSAHEAI [RPL5]
5. NIPRRELKINLPLTEHK [SRB4]
6. RSCVSNSNENGTLERIK [RPN4]

Data returned:
1: 1.19; 2: 2.94; 3: 2.99; 4: 2.98; 5: 2.93; 6: 2.98

----------
# protocol: protein stability index of a GFP-peptide fusion (yeast GPS) (PSI 1-4); higher = more stable; sorted into four equal gates, so the index is relative within each strain
# reported.conditions: doa10∆
The threshold is inclusive: protein stability index of exactly 3 counts as Met; values below receive Not met.

1) HNVFSKEQTIQLPSKFT [RPN14]	Not met
2) SPYAAMLAAQDVAAKCK [RPS14A]	Not met
3) DEYQAAVEQRKKEKLDS [DPB4]	Met
4) RSPTRRLELLQLSPVKN [SMC4]	Not met
5) PAFSFNSSVGNKTDAQA [YJL041W/NSP1]	Not met

Now let's try a different one.
Data request: Hello, I need to know if ERKQIHEFKLIVGKKIQ [GRR1] has measured protein stability index not below 3. Thanks!
Data returned: Not met

----------
# protocol: protein stability index of a GFP-peptide fusion (yeast GPS) (PSI 1-4); higher = more stable; sorted into four equal gates, so the index is relative within each strain
# reported.conditions: ubr1∆
measurement.name: protein stability index
One number for each entry.

Example entries and their recorded answers appear below.
1) DLESSSPELKADLRPLQ [RPS7B]	3.27
2) NTTDPLGHTKAALGEVA [SIR2]	3.08
3) EVSGENVVEADLKRFVD [QCR2]	3.66
4) FNDSQAIVCYILFELYK [SRP72]	2.36
5) MPGGYFHSEISPDSTVN [YAR002W/NUP60]	2.76
6) QQQQQNQQQQNQQPQQQ [SWI1]	2.85
7) KTWLRNQEDEKNLQRES [RTT102]	3.23
8) ENPAFLPGTNNNSNSNN [SEC65]	2.86

Quick batch: protein stability index for everything below.
1. TQTFNGSIFTHETTFMT [YML031W/NDC1]
2. KILPTDIQLKNLFPLKP [SRP68]
3. KPKNTKENLSKSSWRQE [SIR4]
4. DLEWQELTSFSSQPLEP [DSN1]
5. YLFDEIDAALDKQYRTA [SMC3]
6. SLFSKIKTFFTQKDSAR [YAR002W/NUP60]

Data returned:
1: 2.89; 2: 2.53; 3: 1.5; 4: 2.98; 5: 3.12; 6: 2.68

----------
# protocol: protein stability index of a GFP-peptide fusion (yeast GPS) (PSI 1-4); higher = more stable; sorted into four equal gates, so the index is relative within each strain
# reported.conditions: ubr1∆
measurement.name: protein stability index
Numbers only.

Quick batch: protein stability index for everything below.
1. STGLKNASDALKGRVVE [RPS1B]
2. TNAGYTIELAGGGYFSA [FAS1]
3. FVYNKVNETEAILYTKP [YGR119C/NUP57]
4. SNKKETKKKRKPTEVND [ITC1]
5. VASQSPHATATEKEPVP [SNF6]
6. DPEEVEQQVAEEATTEE [RPS0A]

Data returned:
2.67
2.09
2.97
3.23
3.35
3.56

----------
# protocol: protein stability index of a GFP-peptide fusion (yeast GPS) (PSI 1-4); higher = more stable; sorted into four equal gates, so the index is relative within each strain
# reported.conditions: ubr1∆
measurement.name: protein stability index
Give bare numbers.

Example entries and their recorded answers appear below.
1. EARLFNIWGTVRTNRFD [ECM29]	2.32
2. FRKKRKFELGRQPANTK [RPS8A]	3.16
3. LSGGQKTVCAIALILAI [SMC3]	2.74
4. SNLAATKSMVKIAEQYS [RPN11]	2.98
5. FTIRGFKQKLNELLKCK [MTW1]	3.17
6. KREESESAAVYNGRGAR [SNF2]	3.49
7. VSLSQLLFIVGQVAIKT [YCS4]	2.13

Pending sequence:
// recorded protein stability index for EHGMNAPSVPEFIYLTK [SNF2] : 3.15

----------
# protocol: protein stability index of a GFP-peptide fusion (yeast GPS) (PSI 1-4); higher = more stable; sorted into four equal gates, so the index is relative within each strain
# reported.conditions: pdr5∆
measurement.name: protein stability index

Example entries and their recorded answers appear below.
1. PCLSRSCTKCPQIVVPD [DIS3]	2.56
2. LQRASSKMGAPWCVKPE [ITC1]	3.29
3. VVSCSQHGFEVQVGPMK [RPB7]	3.15
4. PNSSANNNPLQQQSSQN [GAL11]	3.03
5. IIVPDLIELKSDLLVAP [YML103C/NUP188]	1.8

Quick batch: protein stability index for everything below.
1. QHQRIVAFVCSPISDSR [RPN10]
2. PEDAQLLLAANTHLGAR [RPS0A]

Data returned:
3.12
1.39

----------
# protocol: protein stability index of a GFP-peptide fusion (yeast GPS) (PSI 1-4); higher = more stable; sorted into four equal gates, so the index is relative within each strain
# reported.conditions: doa10∆
The threshold is inclusive: protein stability index of exactly 3 counts as true (1); values below receive false (0).

Answered examples (2):
1. GTKSNEKKDSGSSKPAF [YJL041W/NSP1]	true (1)
2. NAAPANVTGGKAANFIQ [SWI1]	false (0)

Now let's try a different one.
Data request: Hello, I need to know if ISSRTYGQRAVLKFAAH [RPS0B] has measured protein stability index not below 3. Thanks!
Data returned: false (0)

----------
Record form. Attribute: protein stability index. Fill in for each entry.
# protocol: protein stability index of a GFP-peptide fusion (yeast GPS) (PSI 1-4); higher = more stable; sorted into four equal gates, so the index is relative within each strain
# reported.conditions: doa10∆
One number for each entry.

1. SKNSKLSIICVGGHNVT [SIR3]	1.71
2. TLLWNKNDKLIKIEDFV [SNF5]	1.8
3. PKMKDEEYDDDDDNSNV [SNF2]	3.4
4. VLAHRIGLVPLKVDPDM [RPC40]	2.94
5. EHGMNAPSVPEFIYLTK [SNF2]	3.21
6. RQPANTKIGAKRIHSVR [RPS8A]	3.08

Quick batch: protein stability index for everything below.
1. NDFFPGEVVYLRKQKDS [ITC1]
2. LDKHERKWMEEKADYER [YIL149C/MLP2]
3. LFKALKVILNERGGKFH [RGR1]
4. PNELSQILTVDPKTSLR [RPC82]
5. EKFSSFIESIVVDFKNK [SNF12]

Data returned:
2.03
2.8
2.44
2.2
2.69

----------
# protocol: protein stability index of a GFP-peptide fusion (yeast GPS) (PSI 1-4); higher = more stable; sorted into four equal gates, so the index is relative within each strain
# reported.conditions: ubr1∆
measurement.name: protein stability index
Answers are plain numbers.

Example entries and their recorded answers appear below.
1) HIHKHVKDEAFDDLLKP [RET1]	3.11
2) MNIKPVQKQTRAGQRTR [RPS2]	2.58
3) ETESSVSNNEANTPSIP [SWI3]	3.15
4) ALSGLYYKNFHNSVKRY [SNM1]	1.22

Quick batch: protein stability index for everything below.
1. RLILLLNHRNKNQHRAA [RMP1]
2. IPSLANNGNNSTSIQYH [POP6]
3. FPSSETTSLNPIQSKVF [BRR2]
4. TAVSFVSAAEDESLIRE [PRP28]
5. LGSGSLAAMAVLESHWK [PUP1]
6. WVKKFKWAGIKTRKFVF [CYT1]
7. TTARAKARAKKTKKEKG [RPN2]

Data returned:
[2.13, 2.59, 2.33, 2.2, 3.69, 1.27, 3.21]

Quick batch: protein stability index for everything below.
1. LRNYLTPNVREEKQKSY [PUP1]
2. ALAQQKLLTPQDMEAAK [GAL11]
3. AERDSQGGFYKQQDAEE [UBP6]
4. NEAPPKTSLADWQKEDG [YMR153W/NUP53]
5. LAAPKKLNDSQRKTVNS [POP1]
6. EPSGIYSSWSAQTIGRN [PRE6]

Data returned:
[3.27, 3.32, 3.28, 2.93, 3.34, 1.53]

Quick batch: protein stability index for everything below.
1. EDHDVHSNESSNETIGE [IRR1]
2. LCAGANNPKIQTKDSVK [IRR1]
3. TYLLKNDLVKARDLLDD [RPN9]
4. IYYDSYIHLAYSRSVDK [SSN2]
5. FQYVIDESSGTSRIDEE [SMC4]
6. ARVLFDDMVEYEDGTPA [CYT1]
7. HYVSTSKISQMAQNKTH [YLR018C/POM34]

Data returned:
[3.06, 3.15, 2.52, 3.26, 3.23, 3.48, 1.87]
